# credit: patent US20230167073A1

Documented IC50 across a set of compounds
Biological target: Human TRPC6 (Homo sapiens, UniProt Q9Y210)
Construct: expressed in transfected cells
Test: Evaluation of TRPC6 channel inhibitory activity (1), FLIPR Calcium 5 Assay Kit, OAG stimulation (Compound Nos. 1-1293)
Type: cell-based
Details: Human TRPC6 stably-expressing cells, OAG 30 μM, FLIPR Calcium 5 Assay Kit; read-out: Inhibitory activity (pIC50 class) (converted)
endpoint.label: IC50

Cn1nc(-c2ccccc2)cc1Oc1cc(Cl)ncc1-c1ccc(CCN)cn1    10 to 1000 nM
Cc1nc(Oc2cc(C#N)ccc2-c2ccc(CCN)nc2)cc(-c2ccc(F)cc2)n1    10 to 1000 nM
Cn1nc(N2CCOCC2)cc1Oc1cc(F)ccc1-c1ccc(CN)cn1    10 to 1000 nM
Cn1nc(-c2ccccn2)cc1Cc1cc(C#N)ccc1-c1ncc(CCN)cn1    < 10 nM
Cc1nc(Oc2cc(C#N)ccc2-c2ncc(CCN)cn2)cc(N2CCC(F)CC2)n1    < 10 nM
Cn1nc(N2CCCC2)cc1Oc1cc(F)ccc1-c1ccc(CCN)cn1    < 10 nM
NCCc1cnc(-c2ccc(F)cc2Oc2cnn(CC(F)F)c2)nc1    > 1000 nM
N#Cc1ccc(-c2ccc(CCN)cc2)c(Oc2cnnc(OC3CCOC3)c2)c1 (stereo not shown)    10 to 1000 nM
COCc1cncn1Cc1cc(C#N)ccc1-c1ccc(CCN)cc1    > 1000 nM
Cc1nc(Oc2cc(C#N)ccc2-c2ccc(CCN)cc2)cc(-c2ccnn2C)n1    10 to 1000 nM
Cc1nc(Oc2cc(C#N)ccc2-c2ccc(CCN)cc2)cc(N2CCC(F)(F)CC2)n1    10 to 1000 nM
CN(C)c1cc(Oc2cc(C#N)ccc2-c2ncc(CN)cn2)cnn1    10 to 1000 nM
Cc1cc(C(C)(C)C)nn1Cc1cc(C#N)ccc1-c1ccc(CCN)cn1    10 to 1000 nM

* * *

Documented IC50 across a set of compounds
Target: Human TRPC6 (Homo sapiens)
Construct: expressed in transfected cells
Experiment: Evaluation of TRPC6 channel inhibitory activity (1), FLIPR Calcium 5 Assay Kit, OAG stimulation (Compound Nos. 1-1293)
Assay type: cell-based
Conditions: Human TRPC6 stably-expressing cells, OAG 30 μM, FLIPR Calcium 5 Assay Kit; read-out: Inhibitory activity (pIC50 class) (converted)
endpoint.label: IC50

Cc1nc(Oc2cc(C#N)ccc2-c2ccc(C3CN(CCC(=O)O)C3)cc2)cc(N2CCOCC2)n1    > 1000 nM
Cn1nc(C2CC2)cc1Oc1cc(C#N)ccc1-c1cccn2c(CN)nnc12    10 to 1000 nM
CCCc1cc(Oc2cc(C#N)ccc2-c2ccc(CN)cn2)n(C)n1    < 10 nM
N#Cc1ccc(-c2ncc(CN)cn2)c(Sc2cnnc(N3CCCCC3)c2)c1    10 to 1000 nM
Cn1nc(-c2nccs2)cc1Oc1cc(C#N)ccc1-c1ncc(CN)cn1    < 10 nM
Cc1nc(Oc2cc(C#N)ccc2-c2nc(C)c(CN(C)C)s2)cc(-c2ccccc2)n1    > 1000 nM
Cn1nc(-c2ccccc2)cc1Oc1cc(C#N)ncc1-c1ccc(CN)cn1    10 to 1000 nM
N#Cc1ccc(-c2ccc(CN)cn2)c(C(=O)c2nnc(N3CCOCC3)o2)c1    10 to 1000 nM
Cc1nc(Oc2cc(C#N)ccc2-n2cc([C@@H](O)CN)cn2)cc(-c2ccccc2Cl)n1    10 to 1000 nM

* * *

Documented IC50 across a set of compounds
Biological target: Human TRPC6 (Homo sapiens)
Construct: expressed in transfected cells
Sequence (Q9Y210 1-931): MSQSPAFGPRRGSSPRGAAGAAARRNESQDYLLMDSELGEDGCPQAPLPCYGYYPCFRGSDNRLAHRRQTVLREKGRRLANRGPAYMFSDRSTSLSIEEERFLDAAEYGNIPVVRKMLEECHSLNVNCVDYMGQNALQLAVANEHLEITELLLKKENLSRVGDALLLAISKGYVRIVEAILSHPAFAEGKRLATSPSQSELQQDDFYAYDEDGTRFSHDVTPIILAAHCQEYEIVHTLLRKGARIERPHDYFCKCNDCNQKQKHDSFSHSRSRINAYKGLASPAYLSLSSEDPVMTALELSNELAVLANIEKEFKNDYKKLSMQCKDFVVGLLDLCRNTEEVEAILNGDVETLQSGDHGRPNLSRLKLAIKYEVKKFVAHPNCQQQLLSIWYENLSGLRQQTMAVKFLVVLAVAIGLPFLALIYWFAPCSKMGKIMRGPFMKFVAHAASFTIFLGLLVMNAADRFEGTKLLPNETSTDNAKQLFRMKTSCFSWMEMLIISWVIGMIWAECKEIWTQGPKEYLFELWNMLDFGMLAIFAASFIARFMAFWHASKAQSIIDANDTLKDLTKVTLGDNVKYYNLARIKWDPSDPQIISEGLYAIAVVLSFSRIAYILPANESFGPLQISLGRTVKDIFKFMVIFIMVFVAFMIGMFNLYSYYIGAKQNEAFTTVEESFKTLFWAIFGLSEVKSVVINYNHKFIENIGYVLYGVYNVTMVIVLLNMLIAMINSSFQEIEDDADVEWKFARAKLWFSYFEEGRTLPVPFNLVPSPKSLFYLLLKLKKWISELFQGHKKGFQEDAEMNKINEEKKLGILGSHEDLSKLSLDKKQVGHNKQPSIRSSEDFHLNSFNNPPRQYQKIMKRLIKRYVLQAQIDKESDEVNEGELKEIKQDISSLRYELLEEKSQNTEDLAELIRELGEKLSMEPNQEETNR
Test: Evaluation of TRPC6 channel inhibitory activity (1), FLIPR Calcium 5 Assay Kit, OAG stimulation (Compound Nos. 1-1293)
Format: cell-based
Settings: Human TRPC6 stably-expressing cells, OAG 30 μM, FLIPR Calcium 5 Assay Kit; read-out: Inhibitory activity (pIC50 class) (converted)
Protocol: Evaluation of TRPC6 Channel Inhibitory Activity (1) (Compound Nos. 1-1293) In order to investigate TRPC6 channel inhibitory activity of the compounds, evaluation was conducted using FLIPR® Calcium 5 Assay Kit (Molecular Devices) in accordance with the following procedure. […] A volume of 12.5 μL of a compound solution was added into each well while the fluorescence was measured with FLIPR tetra. […]
endpoint.label: IC50

Cc1nc(Oc2cc(C#N)ccc2-c2ccc(CCN)cc2)cc(N2CCCC(F)(F)C2)n1    10 to 1000 nM
N#Cc1ccc(-n2ccc(CN)n2)c(Oc2cnnc(-c3ccccc3)c2)c1    > 1000 nM
Cc1cc(Oc2cc(C#N)ccc2-c2ccc(CCN)cn2)cc(N2CCNC(=O)C2)n1    > 1000 nM

* * *

Target: Human TRPC6 (Homo sapiens)
Construct: expressed in transfected cells
Sequence (Q9Y210 1-931): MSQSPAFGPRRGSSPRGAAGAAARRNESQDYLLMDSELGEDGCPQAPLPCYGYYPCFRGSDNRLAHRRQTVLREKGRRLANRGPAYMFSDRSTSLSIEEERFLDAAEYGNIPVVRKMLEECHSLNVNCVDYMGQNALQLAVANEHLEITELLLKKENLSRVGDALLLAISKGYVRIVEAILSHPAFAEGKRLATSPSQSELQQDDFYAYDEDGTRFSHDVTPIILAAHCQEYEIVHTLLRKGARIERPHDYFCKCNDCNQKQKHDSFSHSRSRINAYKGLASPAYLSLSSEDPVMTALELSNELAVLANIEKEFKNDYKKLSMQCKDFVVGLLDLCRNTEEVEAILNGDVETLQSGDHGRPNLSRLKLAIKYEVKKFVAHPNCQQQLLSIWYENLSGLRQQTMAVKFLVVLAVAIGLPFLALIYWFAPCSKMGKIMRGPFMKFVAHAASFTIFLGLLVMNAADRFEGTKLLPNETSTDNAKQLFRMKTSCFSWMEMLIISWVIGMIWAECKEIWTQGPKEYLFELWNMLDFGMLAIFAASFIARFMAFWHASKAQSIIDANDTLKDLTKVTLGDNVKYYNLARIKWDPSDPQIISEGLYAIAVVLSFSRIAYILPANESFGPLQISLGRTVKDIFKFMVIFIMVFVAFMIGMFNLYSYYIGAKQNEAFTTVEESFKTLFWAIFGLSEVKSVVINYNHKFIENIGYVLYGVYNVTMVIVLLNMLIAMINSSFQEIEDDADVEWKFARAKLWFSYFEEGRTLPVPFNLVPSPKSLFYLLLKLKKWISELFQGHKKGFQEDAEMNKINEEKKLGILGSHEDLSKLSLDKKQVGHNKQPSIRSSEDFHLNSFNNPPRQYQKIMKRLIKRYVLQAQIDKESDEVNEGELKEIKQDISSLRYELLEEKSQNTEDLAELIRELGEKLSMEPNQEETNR
Experiment: Evaluation of TRPC6 channel inhibitory activity (1), FLIPR Calcium 5 Assay Kit, OAG stimulation (Compound Nos. 1-1293)
Format: cell-based
Settings: Human TRPC6 stably-expressing cells, OAG 30 μM, FLIPR Calcium 5 Assay Kit; read-out: Inhibitory activity (pIC50 class) (converted)
Documented IC50 across a set of molecules
endpoint.label: IC50

Cc1cc(Oc2cc(C#N)ccc2-c2ccc([C@H](O)CN)cn2)cc(N2CCOCC2)n1 [compound 429]    < 10 nM
Cc1nn(CC(F)F)cc1Oc1cc(C#N)ccc1-c1ncc(CCN)cn1 [compound 924]    10 to 1000 nM
Cn1nc(-c2ccccn2)cc1Oc1cc(C#N)ccc1-c1nccc(CN)n1 [compound 682]    10 to 1000 nM
Cn1nc(-c2ccccc2)cc1Oc1cc(C#N)ccc1-c1ncc(CCN)cn1 [Compound 274]    < 10 nM
Cc1nc(-c2cc(Oc3cc(C#N)ccc3-c3ncc(CN)cn3)n(C)n2)cs1 [compound 957]    < 10 nM
CC(C)n1nc(C2CC2)cc1Oc1cc(C#N)ccc1-c1ncc([C@H](O)CN)cn1 [compound 408]    10 to 1000 nM
Cc1nc(C2CCOCC2)cn1Cc1cc(C#N)ccc1-c1ncc(CN)cn1 [compound 1164]    10 to 1000 nM
Cc1nc(Oc2cc(C#N)ccc2-c2ccc(CCNCCCO)cc2)cc(N2CCOCC2)n1 [Compound 58]    10 to 1000 nM
N#Cc1ccc(-c2ncc(CCN)cn2)c(Cn2cc(C3CCCCC3)nn2)c1 [compound 1186]    < 10 nM
CN(C)c1cc(Oc2cc(C#N)ccc2-c2ccc(CCN)cn2)n(C)n1 [compound 543]    < 10 nM
Cc1nc(Sc2cc(C#N)ccc2-n2cc(CCN)cn2)cc(N2CCOCC2)n1 [compound 1251]    10 to 1000 nM
Cc1nc(Oc2cc(C#N)ccc2-c2ncc(CN)cn2)cc(N2CCC[C@@H]2C)n1 [compound 795]    < 10 nM
CCCCc1cc(Oc2cc(C#N)ccc2-c2ccc(C(O)CN)cn2)n(C)n1 (stereo not shown) [compound 318]    < 10 nM
CC(C)c1cc(Oc2cc(C#N)ccc2-c2ccc(CN)cn2)n(C)n1 [compound 362]    < 10 nM
Cc1nc(Oc2cc(C#N)ccc2-n2cc([C@@H](O)CN)cn2)cc(N2CCCC2)n1 [Compound 232]    < 10 nM
Cn1nc(-c2cccc(F)c2)cc1Oc1cc(C#N)ccc1-c1ccc(C(O)CN)cc1 (stereo not shown) [Compound 198]    < 10 nM
Cc1nn(C(C)C)cc1Oc1cc(C#N)ccc1-c1ncc(CCN)cn1 [compound 803]    < 10 nM
Cc1cc(Oc2cc(C#N)ccc2-c2cc(CN)cn3cnnc23)cc(N2CCOCC2)n1 [compound 733]    > 1000 nM
Cc1ncc(N2CCOCC2)cc1Oc1cc(C#N)ccc1-c1ncc(CN)cn1 [compound 920]    > 1000 nM
